System: Septoria tritici
TEST DETAILS: Test G: wheat leaf blotch, preventive spray on wheat seedlings, visual disease rating
TEST SETTINGS: wheat leaf blotch, sprayed the day before inoculation; 100 = 100% disease control, 0 = no disease control relative to controls
MEASURED QUANTITY: Test G disease control rating
Reply with the number and its unit after it.

Suppose we examine the compound "COc1ccc(-c2c(C)nn(C)c2Oc2ccc(C#N)cc2F)c(Br)c1" ; what Test G disease control rating value has been reported?
100%

Suppose we examine the compound "Cc1nn(C)c(Nc2ncc(Cl)cc2Cl)c1-c1cccc(Cl)c1Cl" ; what Test G disease control rating value has been reported?
98%

Suppose we examine the compound "Cc1nn(C)c(Oc2c(F)cc(C#N)cc2F)c1-c1cccnc1Cl" ; what Test G disease control rating value has been reported?
98%

Suppose we examine the compound "Cc1nn(C)c(Oc2c(F)cc(C#N)cc2F)c1-c1cc(C(F)(F)F)ccc1Cl" ; what Test G disease control rating value has been reported?
0%

Suppose we examine the compound "Cc1nn(C)c(Nc2ccc(Cl)cc2Cl)c1-c1c(Cl)cccc1Cl" ; what Test G disease control rating value has been reported?
100%

Suppose we examine the compound "Cc1nn(C)c(Nc2c(F)cccc2F)c1-c1ccc(Cl)cc1Cl" ; what Test G disease control rating value has been reported?
99%

Suppose we examine the compound "COc1ccc(Nc2c(-c3ccc(Cl)cc3Cl)c(C)nn2C)cc1" ; what Test G disease control rating value has been reported?
100%

Suppose we examine the compound "Cc1nn(C)c(Oc2c(F)cc(C#N)cc2F)c1-c1ccccc1F" ; what Test G disease control rating value has been reported?
100%

Suppose we examine the compound "Cc1nn(C)c(Nc2ccc(F)cc2F)c1-c1c(Cl)cccc1Cl" ; what Test G disease control rating value has been reported?
100%

Suppose we examine the compound "COc1ccc(Nc2c(-c3ccc(F)cc3Br)c(C)nn2C)c(Cl)c1" ; what Test G disease control rating value has been reported?
100%

Suppose we examine the compound "COc1ccc(Nc2c(-c3ccc(F)cc3Cl)c(C)nn2C)c(Cl)c1" ; what Test G disease control rating value has been reported?
100%

Suppose we examine the compound "Cc1nn(C)c(Nc2c(Cl)cc(F)cc2Cl)c1-c1c(Cl)cccc1Cl" ; what Test G disease control rating value has been reported?
99%

Suppose we examine the compound "Cc1nn(C)c(Nc2ccc(Br)cc2F)c1-c1ccc(F)cc1Cl" ; what Test G disease control rating value has been reported?
100%

Suppose we examine the compound "COCN(c1c(F)cc(F)cc1F)c1c(-c2ccc(F)cc2Cl)c(C)nn1C" ; what Test G disease control rating value has been reported?
100%

Suppose we examine the compound "COc1ccc(-c2c(C)nn(C)c2Oc2ccc(C#N)cc2Cl)c(Cl)c1" ; what Test G disease control rating value has been reported?
100%

Suppose we examine the compound "Cc1nn(C)c(Oc2ccc(C#N)cc2Cl)c1-c1ccc(Cl)cc1Cl" ; what Test G disease control rating value has been reported?
100%

Suppose we examine the compound "Cc1nn(C)c(Nc2ncc(Cl)cc2Cl)c1-c1ccccc1Cl" ; what Test G disease control rating value has been reported?
100%

Suppose we examine the compound "Cc1nn(C)c(Nc2ccc(F)cc2Cl)c1-c1ccc(F)cc1Br" ; what Test G disease control rating value has been reported?
100%
